B1: FAM46C (parent)
chain: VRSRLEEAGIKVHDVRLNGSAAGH

# Variants of: B1
# ASSAY: protein stability index of a GFP-peptide fusion (GPS, HEK-293T) (PSI 1-6); higher = more stable;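 further: lentivirally expressed fusions sorted by FACS into six bins by GFP to DsRed ratio, PSI derived from sequencing read proportions per bin multiplied by bin number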
# EXPERIMENTAL SETUP: c terminus: a fixed tail appended
protein stability index of 3 or higher: rule met. Under 3: rule not met.

| CHANGES | ASSIGNED CLASS |
| --- | --- |
| V1M | rule not met |
| G9I | rule not met |
| R4I | rule not met |
| V15H | rule met |
| L17K | rule met |
| I10T | rule met |
| V15R | rule met |
| G23S | rule not met |
| H13R | rule not met |
| G23H | rule not met |
| G9L | rule not met |

Where do these numbers come from? They come from the supplement of paper PMC10567573.
